- Test system: human endothelin-A (ETA) receptors (Homo sapiens)
- Construct: made in house; host or cells: Sf9 insect cells (membrane fractions)
- Sequence (P25101 21-427): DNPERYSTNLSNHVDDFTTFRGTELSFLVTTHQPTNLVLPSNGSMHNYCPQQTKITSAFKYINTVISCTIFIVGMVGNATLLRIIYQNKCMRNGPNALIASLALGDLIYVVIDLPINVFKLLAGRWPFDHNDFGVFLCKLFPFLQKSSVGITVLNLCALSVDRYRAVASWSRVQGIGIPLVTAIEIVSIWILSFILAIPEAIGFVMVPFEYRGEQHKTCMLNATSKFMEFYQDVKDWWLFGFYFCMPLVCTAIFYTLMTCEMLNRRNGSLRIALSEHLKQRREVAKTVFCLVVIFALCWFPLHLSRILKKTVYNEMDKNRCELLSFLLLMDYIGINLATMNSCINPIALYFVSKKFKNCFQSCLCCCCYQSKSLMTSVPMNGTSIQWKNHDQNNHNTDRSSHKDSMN
- Assay text: Binding Test to ETA receptor expressed in an insect cell Sf9 ([125I]endothelin-1 displacement)
- Reported conditions: Sf9 membrane fractions; [125I]endothelin-1; 25°C, 60 minutes; concentration causing PMB=50%; read-out: IC50 value: µM Human endotherin-A receptor

Compound: COCOc1ccc(-c2sc3c(c2CNS(C)(=O)=O)c(=O)n(CC(=O)O)c(=O)n3Cc2ccccc2SC)cc1 [Example 5]
IC50 / µM: 0.011
--
Compound: COCOc1ccc(-c2sc3c(c2CNS(=O)(=O)C(C)C)c(=O)n(CC(=O)O)c(=O)n3Cc2ccccc2SC)cc1 [11(11)]
IC50 / µM: 0.0066
--
Compound: CCCOc1ccc(-c2sc3c(c2CNS(=O)(=O)CC)c(=O)n(CC(=O)O)c(=O)n3Cc2ccccc2SC)cc1 [11(9)]
IC50 / µM: 0.015
--
Compound: CCS(=O)(=O)NCc1c(-c2ccc(OCOC)cc2)sc2c1c(=O)n(CC(=O)O)c(=O)n2Cc1ccccc1SC [11(16)]
IC50 / µM: 0.0061
